Biological target: T1, Hof1, Q05080
T1 sequence (Q05080 590-669, looked up): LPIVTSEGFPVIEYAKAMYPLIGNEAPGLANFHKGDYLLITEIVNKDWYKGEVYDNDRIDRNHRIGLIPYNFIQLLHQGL
Assay: SPOT array
Details: median of control spots 4086
EXPERIMENTAL ENDPOINT: SPOT intensity
Note: the reply should be a number with no unit written.

QRIRKIPGIPLMSVG    13
NFLRLLIGLPSQNEL    3
TPTSGPPLLPPRNTM    3
LLRRTIPKRPFYHVL    52
DKSRPPRPPPKPLHL    0
APPLPPTAPPPPSLP    51

# SPOT intensity (binder: `SPLGAPPPPPHKDHL` ) is 0
